Biological target: H-2 D^d (Mus musculus)
Sequence (P01900 whole entry, looked up): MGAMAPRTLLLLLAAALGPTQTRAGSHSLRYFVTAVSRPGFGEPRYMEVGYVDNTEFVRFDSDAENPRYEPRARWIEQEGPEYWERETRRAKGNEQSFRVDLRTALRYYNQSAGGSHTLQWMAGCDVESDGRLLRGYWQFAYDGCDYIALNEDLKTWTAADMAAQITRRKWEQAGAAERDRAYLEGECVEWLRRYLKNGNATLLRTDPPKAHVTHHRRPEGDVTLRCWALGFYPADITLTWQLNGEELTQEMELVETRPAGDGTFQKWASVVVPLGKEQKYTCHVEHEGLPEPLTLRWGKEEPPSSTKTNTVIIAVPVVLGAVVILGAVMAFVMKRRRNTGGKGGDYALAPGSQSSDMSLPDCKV
Assay type: binding
measured.metric: Normalized average relative binding affinity (ARB), H-2 Dd

INSERT INTO assay_data (sequence_data, test_result) VALUES
  ('XXEXXXXXX [3064.0044]', 0.0030),
  ('IXXXXXXXX [3064.0008]', 0.39),
  ('XEXXXXXXX [3064.0024]', 0.014),
  ('XVXXXXXXX [3064.0038]', 0.016),
  ('XGXXXXXXX [3064.0026]', 1.0),
  ('XXXCXXXXX [3064.0062]', 0.56),
  ('XXMXXXXXX [3064.0051]', 0.0095),
  ('XHXXXXXXX [3064.0027]', 0.061),
  ('XXWXXXXXX [3064.0059]', 0.0028),
  ('XXXAXXXXX [3064.0061]', 0.52),
  ('PXXXXXXXX [3064.0013]', 0.095),
  ('XXIXXXXXX [3064.0048]', 0.0041),
  ('XNXXXXXXX [3064.0032]', 0.018),
  ('MXXXXXXXX [3064.0011]', 0.75),
  ('EXXXXXXXX [3064.0004]', 0.16),
  ('YXXXXXXXX [3064.0020]', 0.41),
  ('FXXXXXXXX [3064.0005]', 0.34);
